Entries annotated with measured inhibition
Biological target: Vascular endothelial growth factor receptor 2 (Homo sapiens)
Sequence (P35968 whole entry): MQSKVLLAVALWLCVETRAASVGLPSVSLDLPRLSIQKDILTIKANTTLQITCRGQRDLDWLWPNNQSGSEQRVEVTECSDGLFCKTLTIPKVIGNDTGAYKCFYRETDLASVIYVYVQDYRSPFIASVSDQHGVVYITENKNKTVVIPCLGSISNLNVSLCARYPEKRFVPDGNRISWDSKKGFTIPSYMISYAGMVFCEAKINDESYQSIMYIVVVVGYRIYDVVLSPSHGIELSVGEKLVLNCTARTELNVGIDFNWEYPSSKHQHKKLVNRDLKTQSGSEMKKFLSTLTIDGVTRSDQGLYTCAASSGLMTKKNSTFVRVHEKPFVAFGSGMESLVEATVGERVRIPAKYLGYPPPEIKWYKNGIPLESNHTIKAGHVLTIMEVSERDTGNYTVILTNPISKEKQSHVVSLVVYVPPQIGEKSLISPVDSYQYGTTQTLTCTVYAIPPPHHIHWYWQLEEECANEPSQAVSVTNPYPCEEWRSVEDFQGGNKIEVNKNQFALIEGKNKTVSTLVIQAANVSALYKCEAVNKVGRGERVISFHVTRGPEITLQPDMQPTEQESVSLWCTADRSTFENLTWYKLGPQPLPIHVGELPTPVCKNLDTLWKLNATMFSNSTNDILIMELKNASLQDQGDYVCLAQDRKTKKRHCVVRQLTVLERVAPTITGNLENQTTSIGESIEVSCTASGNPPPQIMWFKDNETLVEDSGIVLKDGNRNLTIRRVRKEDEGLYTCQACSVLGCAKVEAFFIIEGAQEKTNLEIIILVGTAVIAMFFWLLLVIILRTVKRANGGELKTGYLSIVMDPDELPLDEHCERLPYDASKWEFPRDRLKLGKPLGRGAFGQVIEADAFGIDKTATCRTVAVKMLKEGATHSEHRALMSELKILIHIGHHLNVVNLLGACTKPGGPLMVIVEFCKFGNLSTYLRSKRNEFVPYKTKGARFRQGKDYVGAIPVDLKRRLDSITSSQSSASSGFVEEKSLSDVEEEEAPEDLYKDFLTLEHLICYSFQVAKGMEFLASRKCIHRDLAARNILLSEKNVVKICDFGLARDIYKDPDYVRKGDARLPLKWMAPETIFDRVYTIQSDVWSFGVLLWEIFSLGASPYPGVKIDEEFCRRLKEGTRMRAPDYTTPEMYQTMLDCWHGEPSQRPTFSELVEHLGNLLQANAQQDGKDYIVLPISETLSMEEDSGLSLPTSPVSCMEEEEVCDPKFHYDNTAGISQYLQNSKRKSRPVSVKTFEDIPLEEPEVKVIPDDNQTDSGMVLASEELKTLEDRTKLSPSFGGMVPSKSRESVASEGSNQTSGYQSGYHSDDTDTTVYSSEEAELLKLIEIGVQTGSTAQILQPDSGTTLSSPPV
Assay: Inhibition of KDR using Tyr 01 peptide as substrate at 10 uM after 60 mins by Z'-LYTE assay
parameter measured: inhibition

> print(dat)
                                 smiles.code  parameter.measured  result
 1  Nc1cnccc1CNc1ccsc1C(=O)Nc1ccc(OC(F)(F)F)cc1          inhibition     88%
 2  CC(=O)Nc1cc(CNc2ccsc2C(=O)Nc2ccc(OC(F)(F)F)cc2)ccn1          inhibition    101%
 3  O=C(Nc1ccc(OC(F)(F)F)cc1)c1sccc1NCc1cccc([N+](=O)[O-])c1          inhibition   < 40%
 4  CC(=O)Nc1cccc(CNc2ccsc2C(=O)Nc2ccc(OC(F)(F)F)cc2)c1          inhibition   < 40%
 5  Nc1cccc(CNc2ccsc2C(=O)Nc2ccc(OC(F)(F)F)cc2)c1          inhibition   < 40%
 6  O=C(Nc1ccc(OC(F)(F)F)cc1)c1sccc1NCc1ccccc1N=C=S          inhibition   < 40%
 7  O=C(Nc1ccc(OC(F)(F)F)cc1)c1sccc1NCc1cccc(N=C=S)c1          inhibition   < 40%
 8  O=C(Nc1ccc(OC(F)(F)F)cc1)c1sccc1NCc1ccccc1[N+](=O)[O-]          inhibition   < 40%
 9  O=C(Nc1ccc(OC(F)(F)F)cc1)c1sccc1NCc1ccncc1[N+](=O)[O-]          inhibition   < 40%
10  Nc1ccccc1CNc1ccsc1C(=O)Nc1ccc(OC(F)(F)F)cc1          inhibition   < 40%
11  O=C(Nc1ccc(OC(F)(F)F)cc1)c1sccc1NCc1ccc([N+](=O)[O-])cc1          inhibition   < 40%
12  O=C(Nc1ccc(OC(F)(F)F)cc1)c1sccc1NCc1ccc(N=C=S)cc1          inhibition   < 40%
13  O=C(Nc1ccc(OC(F)(F)F)cc1)c1sccc1NCc1ccc(O)cc1          inhibition     54%
14  O=C(CBr)Nc1cccc(CN2C(=O)CN(c3ccc(OC(F)(F)F)cc3)C(=O)c3sccc32)c1          inhibition   < 40%
15  CC(=O)Nc1ccccc1CNc1ccsc1C(=O)Nc1ccc(OC(F)(F)F)cc1          inhibition   < 40%
16  CC(=O)Nc1ccc(CNc2ccsc2C(=O)Nc2ccc(OC(F)(F)F)cc2)cc1          inhibition   < 40%
17  Nc1ccc(CNc2ccsc2C(=O)Nc2ccc(OC(F)(F)F)cc2)cc1          inhibition   < 40%

----------
Molecular target: Vascular endothelial growth factor receptor 2 (Homo sapiens)
Assay: Inhibition of KDR using Tyr 01 peptide as substrate at 1 uM after 60 mins by Z'-LYTE assay
Listed here are molecules together with their documented inhibition.
parameter measured: inhibition

> print(dat)
                                smiles.code                               test.system  parameter.measured  result
1  CC(=O)Nc1ccccc1CNc1ccsc1C(=O)Nc1ccc(OC(F)(F)F)cc1  Vascular endothelial growth factor receptor 2 (Homo sapiens)          inhibition   < 40%
2  CC(=O)Nc1cc(CNc2ccsc2C(=O)Nc2ccc(OC(F)(F)F)cc2)ccn1  Vascular endothelial growth factor receptor 2 (Homo sapiens)          inhibition    101%
3  O=C(Nc1ccc(OC(F)(F)F)cc1)c1sccc1NCc1cccc(N=C=S)c1  Vascular endothelial growth factor receptor 2 (Homo sapiens)          inhibition   < 40%
4  O=C(Nc1ccc(OC(F)(F)F)cc1)c1sccc1NCc1ccccc1N=C=S  Vascular endothelial growth factor receptor 2 (Homo sapiens)          inhibition   < 40%
5  Nc1cccc(CNc2ccsc2C(=O)Nc2ccc(OC(F)(F)F)cc2)c1  Vascular endothelial growth factor receptor 2 (Homo sapiens)          inhibition   < 40%
6  O=C(Nc1ccc(OC(F)(F)F)cc1)c1sccc1NCc1ccccc1[N+](=O)[O-]  Vascular endothelial growth factor receptor 2 (Homo sapiens)          inhibition   < 40%
7  O=C(Nc1ccc(OC(F)(F)F)cc1)c1sccc1NCc1ccc(N=C=S)cc1  Vascular endothelial growth factor receptor 2 (Homo sapiens)          inhibition   < 40%

----------
Target: Mast/stem cell growth factor receptor Kit (Homo sapiens)
Sequence (P10721 whole entry): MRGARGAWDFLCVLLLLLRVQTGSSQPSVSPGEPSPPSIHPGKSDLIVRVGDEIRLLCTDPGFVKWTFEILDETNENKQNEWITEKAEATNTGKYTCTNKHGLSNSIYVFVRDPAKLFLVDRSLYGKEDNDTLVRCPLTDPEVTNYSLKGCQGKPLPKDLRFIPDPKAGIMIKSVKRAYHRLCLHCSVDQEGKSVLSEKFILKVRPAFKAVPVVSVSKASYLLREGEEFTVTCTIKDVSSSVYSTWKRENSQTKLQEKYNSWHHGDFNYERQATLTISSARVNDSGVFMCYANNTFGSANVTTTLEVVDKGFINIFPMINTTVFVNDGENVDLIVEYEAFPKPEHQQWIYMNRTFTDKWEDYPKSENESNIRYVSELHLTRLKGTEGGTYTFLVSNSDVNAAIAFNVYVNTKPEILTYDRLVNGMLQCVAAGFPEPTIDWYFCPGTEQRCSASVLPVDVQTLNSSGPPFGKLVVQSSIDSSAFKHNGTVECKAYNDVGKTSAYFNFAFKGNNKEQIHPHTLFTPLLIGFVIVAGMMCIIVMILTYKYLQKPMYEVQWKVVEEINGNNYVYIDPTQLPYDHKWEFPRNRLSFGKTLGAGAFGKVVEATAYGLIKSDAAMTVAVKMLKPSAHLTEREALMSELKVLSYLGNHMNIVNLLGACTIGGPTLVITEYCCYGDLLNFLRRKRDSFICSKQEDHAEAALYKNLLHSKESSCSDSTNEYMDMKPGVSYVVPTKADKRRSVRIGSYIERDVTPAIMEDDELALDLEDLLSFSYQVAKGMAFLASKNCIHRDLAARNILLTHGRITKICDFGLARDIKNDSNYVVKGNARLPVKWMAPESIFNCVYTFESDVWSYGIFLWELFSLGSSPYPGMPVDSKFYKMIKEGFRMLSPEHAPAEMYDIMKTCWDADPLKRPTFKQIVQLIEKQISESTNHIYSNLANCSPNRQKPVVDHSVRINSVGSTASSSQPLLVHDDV
Experiment: Inhibition of c-Kit using Tyr 06 peptide as substrate at 1 uM after 60 mins by Z'-LYTE assay
parameter measured: inhibition

> print(dat)
                                smiles.code  parameter.measured  result
1  CC(=O)Nc1cc(CNc2ccsc2C(=O)Nc2ccc(OC(F)(F)F)cc2)ccn1          inhibition     81%
2  O=C(Nc1ccc(OC(F)(F)F)cc1)c1sccc1NCc1ccc(N=C=S)cc1          inhibition   < 40%
3  O=C(Nc1ccc(OC(F)(F)F)cc1)c1sccc1NCc1ccncc1[N+](=O)[O-]          inhibition   < 40%
4  CC(=O)Nc1ccc(CNc2ccsc2C(=O)Nc2ccc(OC(F)(F)F)cc2)cc1          inhibition   < 40%
5  O=C(Nc1ccc(OC(F)(F)F)cc1)c1sccc1NCc1cccc([N+](=O)[O-])c1          inhibition   < 40%

----------
Target: Mast/stem cell growth factor receptor Kit (Homo sapiens)
Test: Inhibition of c-Kit using Tyr 06 peptide as substrate at 10 uM after 60 mins by Z'-LYTE assay
parameter measured: inhibition

> print(dat)
                                 smiles.code                               test.system  result
 1  O=C(Nc1ccc(OC(F)(F)F)cc1)c1sccc1NCc1ccc(O)cc1  Mast/stem cell growth factor receptor Kit (Homo sapiens)     68%
 2  CC(=O)Nc1ccc(CNc2ccsc2C(=O)Nc2ccc(OC(F)(F)F)cc2)cc1  Mast/stem cell growth factor receptor Kit (Homo sapiens)   < 40%
 3  O=C(Nc1ccc(OC(F)(F)F)cc1)c1sccc1NCc1ccccc1N=C=S  Mast/stem cell growth factor receptor Kit (Homo sapiens)   < 40%
 4  Nc1cccc(CNc2ccsc2C(=O)Nc2ccc(OC(F)(F)F)cc2)c1  Mast/stem cell growth factor receptor Kit (Homo sapiens)   < 40%
 5  Nc1ccc(CNc2ccsc2C(=O)Nc2ccc(OC(F)(F)F)cc2)cc1  Mast/stem cell growth factor receptor Kit (Homo sapiens)   < 40%
 6  Nc1cnccc1CNc1ccsc1C(=O)Nc1ccc(OC(F)(F)F)cc1  Mast/stem cell growth factor receptor Kit (Homo sapiens)     91%
 7  O=C(Nc1ccc(OC(F)(F)F)cc1)c1sccc1NCc1ccccc1[N+](=O)[O-]  Mast/stem cell growth factor receptor Kit (Homo sapiens)   < 40%
 8  CC(=O)Nc1cc(CNc2ccsc2C(=O)Nc2ccc(OC(F)(F)F)cc2)ccn1  Mast/stem cell growth factor receptor Kit (Homo sapiens)    102%
 9  O=C(Nc1ccc(OC(F)(F)F)cc1)c1sccc1NCc1cccc(N=C=S)c1  Mast/stem cell growth factor receptor Kit (Homo sapiens)   < 40%
10  O=C(Nc1ccc(OC(F)(F)F)cc1)c1sccc1NCc1ccc(N=C=S)cc1  Mast/stem cell growth factor receptor Kit (Homo sapiens)   < 40%
11  O=C(CBr)Nc1cccc(CN2C(=O)CN(c3ccc(OC(F)(F)F)cc3)C(=O)c3sccc32)c1  Mast/stem cell growth factor receptor Kit (Homo sapiens)     41%
12  CC(=O)Nc1ccccc1CNc1ccsc1C(=O)Nc1ccc(OC(F)(F)F)cc1  Mast/stem cell growth factor receptor Kit (Homo sapiens)   < 40%
13  Nc1ccccc1CNc1ccsc1C(=O)Nc1ccc(OC(F)(F)F)cc1  Mast/stem cell growth factor receptor Kit (Homo sapiens)   < 40%
14  O=C(Nc1ccc(OC(F)(F)F)cc1)c1sccc1NCc1ccncc1[N+](=O)[O-]  Mast/stem cell growth factor receptor Kit (Homo sapiens)     80%
15  O=C(Nc1ccc(OC(F)(F)F)cc1)c1sccc1NCc1cccc([N+](=O)[O-])c1  Mast/stem cell growth factor receptor Kit (Homo sapiens)   < 40%
16  CC(=O)Nc1cccc(CNc2ccsc2C(=O)Nc2ccc(OC(F)(F)F)cc2)c1  Mast/stem cell growth factor receptor Kit (Homo sapiens)     58%
17  O=C(Nc1ccc(OC(F)(F)F)cc1)c1sccc1NCc1ccc([N+](=O)[O-])cc1  Mast/stem cell growth factor receptor Kit (Homo sapiens)   < 40%

----------
Biological target: Vascular endothelial growth factor receptor 1 (Homo sapiens) (UniProt P17948)
Sequence (P17948 whole entry): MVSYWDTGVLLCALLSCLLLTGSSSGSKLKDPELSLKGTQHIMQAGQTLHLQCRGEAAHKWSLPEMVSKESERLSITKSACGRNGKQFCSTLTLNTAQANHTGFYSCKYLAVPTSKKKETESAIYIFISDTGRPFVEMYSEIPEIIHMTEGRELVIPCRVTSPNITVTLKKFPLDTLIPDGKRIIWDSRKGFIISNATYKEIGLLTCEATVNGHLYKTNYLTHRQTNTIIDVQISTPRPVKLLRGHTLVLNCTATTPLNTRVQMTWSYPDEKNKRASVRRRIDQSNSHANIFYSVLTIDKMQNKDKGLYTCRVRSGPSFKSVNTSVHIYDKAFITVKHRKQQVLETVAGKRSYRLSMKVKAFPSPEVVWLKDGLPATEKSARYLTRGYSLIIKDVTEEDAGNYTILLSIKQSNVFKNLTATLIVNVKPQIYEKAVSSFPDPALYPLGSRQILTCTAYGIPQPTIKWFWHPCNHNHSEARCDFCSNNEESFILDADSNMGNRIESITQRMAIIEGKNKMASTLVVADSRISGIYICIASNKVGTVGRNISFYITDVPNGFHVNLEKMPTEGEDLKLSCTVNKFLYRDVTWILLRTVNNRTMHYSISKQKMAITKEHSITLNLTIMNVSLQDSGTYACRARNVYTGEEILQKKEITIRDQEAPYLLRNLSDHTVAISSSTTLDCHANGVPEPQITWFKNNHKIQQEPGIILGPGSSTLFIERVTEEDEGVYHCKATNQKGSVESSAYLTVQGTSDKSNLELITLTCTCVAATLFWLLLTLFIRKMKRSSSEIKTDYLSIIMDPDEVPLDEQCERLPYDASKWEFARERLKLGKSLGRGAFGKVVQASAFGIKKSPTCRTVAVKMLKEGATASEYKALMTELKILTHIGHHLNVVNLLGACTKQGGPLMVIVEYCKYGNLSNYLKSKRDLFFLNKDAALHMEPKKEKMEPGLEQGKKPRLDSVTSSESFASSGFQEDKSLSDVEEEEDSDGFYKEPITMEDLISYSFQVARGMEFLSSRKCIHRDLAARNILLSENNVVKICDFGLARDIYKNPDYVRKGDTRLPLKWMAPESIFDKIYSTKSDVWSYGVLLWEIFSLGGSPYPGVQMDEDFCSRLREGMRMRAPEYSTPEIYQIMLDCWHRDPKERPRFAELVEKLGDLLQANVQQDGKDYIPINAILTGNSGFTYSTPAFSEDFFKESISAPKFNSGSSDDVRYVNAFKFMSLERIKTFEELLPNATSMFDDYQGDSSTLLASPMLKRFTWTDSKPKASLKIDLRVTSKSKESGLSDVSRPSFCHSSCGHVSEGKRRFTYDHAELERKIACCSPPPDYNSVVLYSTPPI
Experiment: Inhibition of VEGFR1 using Tyr 04 peptide as substrate at 1 uM after 60 mins by Z'-LYTE assay
inhibition for assorted compounds
parameter measured: inhibition

> print(dat)
                                 smiles.code  result
 1  O=C(Nc1ccc(OC(F)(F)F)cc1)c1sccc1NCc1ccc([N+](=O)[O-])cc1   < 40%
 2  Nc1ccc(CNc2ccsc2C(=O)Nc2ccc(OC(F)(F)F)cc2)cc1   < 40%
 3  O=C(Nc1ccc(OC(F)(F)F)cc1)c1sccc1NCc1cccc([N+](=O)[O-])c1   < 40%
 4  Nc1cccc(CNc2ccsc2C(=O)Nc2ccc(OC(F)(F)F)cc2)c1   < 40%
 5  CC(=O)Nc1ccccc1CNc1ccsc1C(=O)Nc1ccc(OC(F)(F)F)cc1   < 40%
 6  O=C(Nc1ccc(OC(F)(F)F)cc1)c1sccc1NCc1ccc(N=C=S)cc1   < 40%
 7  Nc1ccccc1CNc1ccsc1C(=O)Nc1ccc(OC(F)(F)F)cc1   < 40%
 8  O=C(Nc1ccc(OC(F)(F)F)cc1)c1sccc1NCc1cccc(N=C=S)c1   < 40%
 9  CC(=O)Nc1ccc(CNc2ccsc2C(=O)Nc2ccc(OC(F)(F)F)cc2)cc1   < 40%
10  O=C(Nc1ccc(OC(F)(F)F)cc1)c1sccc1NCc1ccccc1[N+](=O)[O-]   < 40%
11  O=C(Nc1ccc(OC(F)(F)F)cc1)c1sccc1NCc1ccccc1N=C=S   < 40%
